Data provenance is patent US10538528B2.

Form: system (Rsk1 (Homo sapiens (Human))), quantity (pIC50), values below.
Reminder that pIC50 is minus the log10 of a molar concentration.

| compound | pIC50 |
| --- | --- |
| CC1C(=O)Nc2ncnc(N3CCC(c4nc(-c5ccsc5)ccc4NCCN(C)C)CC3)c21 (stereo not shown) | 8.82 |

Notebook: pull reported pIC50 for Rsk1 (Homo sapiens (Human)), entry CC(C)NCCNc1ccc(-c2cnc(F)c(F)c2)nc1C1CCN(c2ncnc3c2C(C)(C)C(=O)N3)CC1
9.15

Then what about the compound CC1(C)C(=O)Nc2ncnc(N3CCC(c4nc(-c5nc(C(F)(F)F)no5)ccc4NCCN4CCCC4)CC3)c21 ?
9.30

# iterate: CC1(C)C(=O)Nc2ncnc(N3CCC(c4nc(-c5nnc(C(F)(F)F)o5)ccc4NC[C@@H]4CCCN4)CC3)c21
8.82

And then CN(C)CCNc1ccc(-c2cc(Cl)nn2C)nc1C1CCN(c2ncnc3c2C(C)(C)C(=O)N3)CC1 , what is it?
8.96

Note, next up: CC1C(=O)Nc2ncnc(N3CCC(c4nc(-c5ccoc5)ccc4NCCN4CCCC4)CC3)c21 (stereo not shown)
8.77

// query: CC1(C)C(=O)Nc2ncnc(N3CCC(c4nc(-c5nnc(C(F)F)o5)ccc4NCCN4CCCC4)CC3)c21
8.77

* * *

Heads up, these compounds all have GI50 values measured for RKO cells (human colon cancer cell lines).
Output spec: scalar in nM, unitless text.

Below are worked cases with known answers.
| compound | subject of test | GI50, nM |
| --- | --- | --- |
| CC(C)(C)NCCNc1ccc(-c2nnc(C(F)(F)F)o2)nc1C1CCN(c2ncnc3c2C(C)(C)C(=O)N3)CC1 [Compound 32] | RKO cells (human colon cancer cell lines) | 89 |
| CN(C)CCn1cc(-c2ccc(F)c(C(F)(F)F)c2)nc1C1CCN(c2ncnc3c2C(C)(C)C(=O)N3)CC1 [Comparative Example A, reference compound] | RKO cells (human colon cancer cell lines) | 1050 |
| CC(C)(C)NCCNc1ccc(-c2noc(C(F)F)n2)nc1C1CCN(c2ncnc3c2C(C)(C)C(=O)N3)CC1 [Compound 41] | RKO cells (human colon cancer cell lines) | 86 |
| CC1C(=O)Nc2ncnc(N3CCC(c4nc(-c5ccnc(F)c5)ccc4NCCN4CCCC4)CC3)c21 (stereo not shown) [Compound 13] | RKO cells (human colon cancer cell lines) | 111 |
| COc1cncc(-c2ccc(NCCNC(C)C)c(C3CCN(c4ncnc5c4C(C)C(=O)N5)CC3)n2)c1 (stereo not shown) [Compound 15] | RKO cells (human colon cancer cell lines) | 122 |
| CC(C)(C)NCCNc1ccc(-c2cncc(F)c2)nc1C1CCN(c2ncnc3c2C(C)(C)C(=O)N3)CC1 [Compound 1] | RKO cells (human colon cancer cell lines) | 136 |
| CC1(C)C(=O)Nc2ncnc(N3CCC(c4nc(-c5nc(C(F)(F)F)no5)ccc4NCCN4CCCC4)CC3)c21 [Compound 44] | RKO cells (human colon cancer cell lines) | 102 |
| CC1(C)C(=O)Nc2ncnc(N3CCC(c4nc(-c5nnc(C(F)F)o5)ccc4NCCN4CCCC4)CC3)c21 [Compound 30] | RKO cells (human colon cancer cell lines) | 82 |
| CC1C(=O)Nc2ncnc(N3CCC(c4cc(-c5cc(C(F)(F)F)nn5C)cnc4NCCN4CCCC4)CC3)c21 (stereo not shown) [Compound 27] | RKO cells (human colon cancer cell lines) | 48 |
| CC1C(=O)Nc2ncnc(N3CC=C(c4nc(-c5cncc(F)c5)ccc4NCCN4CCCC4)CC3)c21 (stereo not shown) [Compound 26] | RKO cells (human colon cancer cell lines) | 124 |

Please report the recorded GI50 for CC(C)(C)NCCNc1cc(-c2cncc(F)c2)nc(C2CCN(c3ncnc4c3C(C)(C)C(=O)N4)CC2)c1 [Comparative Example B, reference compound] .
2640

Entry CC1C(=O)Nc2ncnc(N3CCC(c4nc(-c5nccs5)ccc4NCCN4CCCC4)CC3)c21 (stereo not shown) [Compound 24] please
130

How about this compound: CC1C(=O)Nc2ncnc(N3CCC(c4nc(-c5ccoc5)ccc4NCCN4CCCC4)CC3)c21 (stereo not shown) [Compound 14]
118
